# study.target: hemagglutinin (HA) of influenza virus H3N2 A/Wisconsin/67/05 (influenza A virus)
# test.summary: cell-based or functional assay
endpoint.label: neutralization titer (nM)
Enter your answer as a number in nM; do not include the unit.

Q: # query: neutralization titer of entry MD1210 (bispecific antibody) EVQLVESGGGLVQAGGSLKLSCAASGRTYAMGWFRQAPGKEREFVAHINALGTRTYYSDSVKGRFTISRDNAKNTEYLEMNNLKPEDTAVYYCTAQGQWRAAPVAVAAEYEFWGQGTQVTVSSAAAGGGGSGGGGSGGGGSGGGGSGGGGSGGGGSGGGGSEVQLVESGGGLVQPGGSLRLSCAVSISIFDIYAMDWYRQAPGKQRDLVATSFRDGSTNYADSVKGRFTISRDNAKNTLYLQMNSLKPEDTAVYLCHVSLYRDPLGVAGGMGVYWGKGALVTVSS
Result: 118

Reference source: patent US20190359693A1
